# System Under Test: LXRβ (Homo sapiens, UniProt P55055)
# Construct: Co-transfection expression plasmids, comprising full-length LXRα (pCMX-h LXRα or LXRβ (pCMX-hLXRβ)); expressed in transfected cells; host or cells: CV-1 African green monkey kidney cells, transient transfection with pCMX-hLXRβ
# Sequence (P55055 1-460): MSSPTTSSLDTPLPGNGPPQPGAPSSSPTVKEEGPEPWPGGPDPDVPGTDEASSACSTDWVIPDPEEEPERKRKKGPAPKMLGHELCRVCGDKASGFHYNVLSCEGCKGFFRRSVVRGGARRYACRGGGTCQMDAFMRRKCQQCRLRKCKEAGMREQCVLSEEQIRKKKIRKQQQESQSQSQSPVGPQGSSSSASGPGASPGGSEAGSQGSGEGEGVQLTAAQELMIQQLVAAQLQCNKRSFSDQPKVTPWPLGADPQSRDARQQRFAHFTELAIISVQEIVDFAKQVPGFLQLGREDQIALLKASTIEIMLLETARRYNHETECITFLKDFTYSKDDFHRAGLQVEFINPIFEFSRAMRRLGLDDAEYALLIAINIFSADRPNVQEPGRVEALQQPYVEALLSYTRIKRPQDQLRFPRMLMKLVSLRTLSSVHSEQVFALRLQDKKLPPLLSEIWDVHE
# Sequence (P19793 1-462 partner): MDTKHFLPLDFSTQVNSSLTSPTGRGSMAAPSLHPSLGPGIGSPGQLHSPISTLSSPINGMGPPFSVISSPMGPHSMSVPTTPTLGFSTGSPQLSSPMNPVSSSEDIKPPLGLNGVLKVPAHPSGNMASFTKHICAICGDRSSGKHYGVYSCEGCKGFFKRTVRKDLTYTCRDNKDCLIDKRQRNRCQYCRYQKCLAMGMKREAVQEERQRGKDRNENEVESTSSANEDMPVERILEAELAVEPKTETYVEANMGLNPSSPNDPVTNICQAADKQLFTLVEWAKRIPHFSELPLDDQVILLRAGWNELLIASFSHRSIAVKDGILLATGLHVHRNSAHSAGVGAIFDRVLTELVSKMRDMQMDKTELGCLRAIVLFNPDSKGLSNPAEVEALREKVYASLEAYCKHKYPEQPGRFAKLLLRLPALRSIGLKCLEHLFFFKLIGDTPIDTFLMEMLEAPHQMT
# Test: LXR/LXRE co-transfection assay (luciferase reporter) in CV-1 cells, LXRβ
# Type: cell-based
# Condition: CV-1 cells, relative to maximum response of high control N-(3-((4-fluorophenyl)-(naphthalene-2-sulfonyl)amino)propyl)-2,2-dimethylpropionamide, read-out: LXRbeta % EFFICACY
Output 1 (yes) for Emax not less than 70%; output 0 (no) otherwise.

Examples from the recorded data:
                                   compound  answer_label
0  CCC(F)(F)c1cc(-c2ccc(-c3cccc(S(C)(=O)=O)c3)cc2-n2nncc2-c2ccc(OC(F)(F)F)cc2)n(C)n1       1 (yes)
1  Cc1nc(-c2ccc(OC(F)(F)F)cc2)c(-c2cc(-c3cc(F)c(CO)c(S(C)(=O)=O)c3)ccc2-n2ccc(COC(N)=O)n2)o1        0 (no)
2  CC(O)C(F)(F)c1cc(-c2ccc(-c3cc(F)c(CO)c(S(C)(=O)=O)c3)cc2-n2nncc2-c2ccc(OC(F)(F)F)cc2)n(C)n1 (stereo not drawn)       1 (yes)
3  Cc1nc(-c2ccc3c(c2)OC(F)(F)O3)c(-c2cc(-c3cc(F)c(CO)c(S(C)(=O)=O)c3)ccc2-c2cc(CC#N)nn2C)o1       1 (yes)
4  Cc1nc(-c2cc(-c3cc(F)c(CO)c(S(C)(=O)=O)c3)ccc2-n2ccc(C(F)(F)F)n2)c(-c2ccc(OC(F)(F)F)cc2)o1       1 (yes)

Does Cc1nc(-c2ccc(OC(F)F)cc2)c(-c2cc(-c3cc(F)c(CO)c(S(C)(=O)=O)c3)ccc2-n2ccc(C(F)(F)F)n2)o1 have a reported Emax of at least 70%? 0 (no)

Further, for Cc1nc(-c2ccc(OC(F)(F)F)cc2)c(-c2cc(-c3cc(F)c(CO)c(S(C)(=O)=O)c3)ccc2-n2ccc(C(N)=O)n2)o1 ? 0 (no)

Further, for Cc1nc(-c2ccc3c(c2)OC(F)(F)O3)c(-c2cc(-c3cc(F)c(CO)c(S(C)(=O)=O)c3)ccc2-c2cc(C(F)(F)C(=O)NC(C)(C)C)nn2C)o1 ? 0 (no)

Further, for Cc1nc(-c2cc(-c3cc(F)c(CO)c(S(C)(=O)=O)c3)ccc2-c2cc(C(C)(C)C(C)(C)O)nn2C)c(-c2ccc3c(c2)OC(F)(F)O3)o1 ? 0 (no)

Further, for CN(C)S(=O)(=O)c1cccc(-c2ccc(-c3cc(C(C)(F)F)nn3C)c(-n3nncc3-c3ccc(OC(F)(F)F)cc3)c2)c1 ? 1 (yes)

Further, for Cn1nc(C(F)(F)C(C)(C)O)cc1-c1ccc(-c2cc(F)c(CO)c(S(C)(=O)=O)c2)cc1-n1nncc1-c1ccc(OC(F)(F)F)cc1 ? 1 (yes)

Further, for Cc1nc(-c2ccc(Cl)c(OC(F)F)c2)c(-c2cc(-c3cccc(S(C)(=O)=O)c3)ccc2-n2ccc(C(F)(F)F)n2)o1 ? 0 (no)

* * *

# System Under Test: LXRβ (Homo sapiens, UniProt P55055)
# Construct: Co-transfection expression plasmids, comprising full-length LXRα (pCMX-h LXRα or LXRβ (pCMX-hLXRβ)); expressed in transfected cells; host or cells: CV-1 African green monkey kidney cells, transient transfection with pCMX-hLXRβ
# Test: LXR/LXRE co-transfection assay (luciferase reporter) in CV-1 cells, LXRβ
# Format: cell-based
# Condition: CV-1 cells, relative to maximum response of high control N-(3-((4-fluorophenyl)-(naphthalene-2-sulfonyl)amino)propyl)-2,2-dimethylpropionamide, read-out: LXRbeta % EFFICACY
Output TRUE for Emax not less than 70%; output FALSE otherwise.

Examples from the recorded data:
>>> print(df.to_string())
                         compound_structure  answer_label
0  Cc1nc(-c2ccc(Cl)c(OC(F)F)c2)c(-c2cc(-c3cc(F)c(CO)c(S(C)(=O)=O)c3)ccc2-n2ccc(C(F)(F)F)n2)o1         FALSE
1  Cc1nc(-c2ccc(OC(F)F)cc2)c(-c2cc(-c3cc(F)c(CO)c(S(C)(=O)=O)c3)ccc2-n2nc(C(F)(F)F)cc2C)o1          TRUE
2  Cc1nc(-c2ccc3c(c2)OC(F)(F)O3)c(-c2cc(-c3cc(F)c(CO)c(S(C)(=O)=O)c3)ccc2-c2cc(C(F)(F)C(=O)NC(C)C)nn2C)o1         FALSE
3  Cc1nc(-c2ccc(OC(F)(F)F)cc2)c(-c2cc(-c3cccc(S(C)(=O)=O)c3)ccc2-n2ccc(C(C)(C)C#N)n2)o1         FALSE
4  Cc1nc(-c2ccc(OC(F)F)c(F)c2)c(-c2cc(-c3cc(F)c(CO)c(S(C)(=O)=O)c3)ccc2-n2cc(Cl)c(C(F)(F)F)n2)o1          TRUE
5  CNC(=O)C(F)(F)c1cc(-c2ccc(-c3cc(F)cc(S(C)(=O)=O)c3)cc2-c2oc(C)nc2-c2ccc3c(c2)OC(F)(F)O3)n(C)n1         FALSE

Does CS(=O)(=O)c1cccc(-c2ccc(-n3ccc(C(F)(F)F)n3)c(-c3nc(C4CC4)oc3-c3ccc(OC(F)(F)F)cc3)c2)c1 have a reported Emax of at least 70%? FALSE

Further, for Cc1nc(-c2ccc(OC(F)(F)F)cc2)c(-c2cc(-c3cccc(S(C)(=O)=O)c3)ccc2-n2ccc(C(=O)NCC(F)(F)F)n2)o1 ? FALSE

Further, for Cc1nc(-c2cc(-c3cccc(S(C)(=O)=O)c3)ccc2-n2nc(C(F)(F)F)cc2C2CC2)c(-c2ccc(OC(F)(F)F)cc2)o1 ? FALSE

Further, for Cc1nc(-c2ccc(OC(F)(F)F)cc2)c(-c2cc(-c3cc(F)c(CO)c(S(C)(=O)=O)c3)ccc2-n2cc(Cl)c(C(F)(F)F)n2)o1 ? TRUE

Further, for Cc1cc(C(F)(F)F)nn1-c1ccc(-c2cccc(S(C)(=O)=O)c2)cc1-c1ocnc1-c1ccc(OC(F)(F)F)cc1 ? TRUE

Further, for Cc1nc(-c2ccc3c(c2)OC(F)(F)O3)c(-c2cc(-c3cc(F)c(CO)c(S(C)(=O)=O)c3)ccc2-c2cc(C(F)(F)CO)nn2C)o1 ? FALSE

* * *

# System Under Test: LXRβ (Homo sapiens, UniProt P55055)
# Construct: Co-transfection expression plasmids, comprising full-length LXRα (pCMX-h LXRα or LXRβ (pCMX-hLXRβ)); expressed in transfected cells; host or cells: CV-1 African green monkey kidney cells, transient transfection with pCMX-hLXRβ
# Test: LXR/LXRE co-transfection assay (luciferase reporter) in CV-1 cells, LXRβ
# Format: cell-based
# Condition: CV-1 cells, relative to maximum response of high control N-(3-((4-fluorophenyl)-(naphthalene-2-sulfonyl)amino)propyl)-2,2-dimethylpropionamide, read-out: LXRbeta % EFFICACY
Output True for Emax not less than 70%; output False otherwise.

Examples from the recorded data:
>>> print(df.to_string())
                                   compound  answer_label
0  Cc1nc(-c2cc(-c3cccc(S(C)(=O)=O)c3)ccc2-n2cc(Cl)c(C(F)(F)F)n2)c(-c2ccc(OC(F)(F)F)cc2)o1          True
1  Cc1nc(-c2ccc3c(c2)OC(F)(F)O3)c(-c2cc(-c3cc(F)c(CO)c(S(C)(=O)=O)c3)ccc2-c2cc(C(F)(F)C(N)=O)nn2C)o1         False
2  Cc1nc(-c2cc(F)c(OC(F)F)c(F)c2)c(-c2cc(-c3cc(F)c(CO)c(S(C)(=O)=O)c3)ccc2-n2cc(Cl)c(C(F)(F)F)n2)o1          True

// next entry
Does Cc1nc(-c2ccc3c(c2)OC(F)(F)O3)c(-c2cc(-c3ccc(CO)c(S(C)(=O)=O)c3)ccc2-n2nc(C(F)(F)F)cc2C)o1 have a reported Emax of at least 70%? False
